Test system: CAKI-1
ASSAY_TEXT: NCI tumour cell line growth inhibition, 48 h
Activity calls are given as the source filed them. No stated cut-off is given here; in the data, active = GI50 up to about 1.1 µM and inactive = higher.
REPORTED_METRIC: GI50

Below, each entry is followed by its recorded GI50 result.
[[record]]
molecule = "CC1CCCP(=O)(c2ccccc2)CC1 (configuration not stated)"
measured_target = "CAKI-1"
reported_metric = "GI50"
endpoint_value = "> 100 µM (inactive)"

[[record]]
molecule = "O=S1(=O)N2CN3CN(C2)CN1C3"
measured_target = "CAKI-1"
reported_metric = "GI50"
endpoint_value = "205 µM (inactive)"

[[record]]
molecule = "COC(=O)C1=C(OC(=O)/C(=C/c2ccc(Cl)cc2)c2ccc(Cl)cc2)C(C(=O)OC)[C@]2(O)[C@@H](C(=O)OC)[C@H]1C[C@@H](c1ccccc1)[C@@H]2C(=O)OC (some centres not stated)"
measured_target = "CAKI-1"
reported_metric = "GI50"
endpoint_value = "> 100 µM (inactive)"

[[record]]
molecule = "c1ccc2c(CN3CCN(Cc4c[nH]c5ccccc45)CC3)c[nH]c2c1"
measured_target = "CAKI-1"
reported_metric = "GI50"
endpoint_value = "23.5 µM (inactive)"

[[record]]
molecule = "COc1ccc2c3c1OC1C(OC)(OC)C=C[C@@]4(Br)[C@@H](C2)N(CC2CC2)CC[C@]314 (some centres not stated)"
measured_target = "CAKI-1"
reported_metric = "GI50"
endpoint_value = "59 µM (inactive)"


# query: GI50 | item "FC(F)(Sc1ncc[nH]1)c1nc2ccccc2o1" | system: CAKI-1
> 100 µM (inactive)

Also check "COc1cc(CCN(C)C)cc(OC)c1OC"
> 100 µM (inactive)
